system: Solanum nigrum (SOLNI); assay: Post-emergence herbicide test, glasshouse, percentage damage; type: in vivo; conditions: 500 g/ha, evaluated after 13 days
READOUT NAME: percentage damage caused to the plant, SOLNI

Some solved entries appear below for comparison.
COMPOUND: Fc1cccc(Oc2ccc(Cl)cn2)c1-c1cc(C(F)F)no1 [Compound A9]
REPORTED VALUE: 5 (5=81-100%)
//
COMPOUND: Fc1cccc(Oc2ccc(C(F)(F)F)cn2)c1-c1cc(C(F)F)no1 [Compound A6]
REPORTED VALUE: 5 (5=81-100%)
//
COMPOUND: O=[N+]([O-])c1ccc(Oc2cccc(F)c2-c2cc(C(F)F)no2)nc1 [Compound A2]
REPORTED VALUE: 5 (5=81-100%)

Requested read-out: percentage damage caused to the plant, SOLNI. Entry: Fc1cnc(Oc2cccc(F)c2-c2cc(C(F)F)no2)c(F)c1 [Compound A10] 5 (5=81-100%)

Requested read-out: percentage damage caused to the plant, SOLNI. Entry: Fc1cc(Cl)cnc1Oc1cccc(F)c1-c1ncc(C(F)(F)F)o1 [Compound A3] 3 (3=41-60%)

###

system: Echinochloa crus-galli (ECHCG); test: Pre-emergence herbicide test, glasshouse, percentage damage; type: in vivo; details: rate 250 g/ha, evaluated after 13 days
Let's look at some molecules and their measured Pre-emergence Test ECHCG percentage damage (five point scale).

Some solved entries appear below for comparison.
SMI: Fc1cnc(Oc2ccccc2-n2cc(C(F)(F)F)cn2)c(F)c1
REPORTED VALUE: 5 (5=81-100%)

SMI: Fc1cc(Cl)cnc1Oc1ccccc1-n1cc(Br)cn1
REPORTED VALUE: 5 (5=81-100%)

SMI: Fc1cc(Cl)cnc1Oc1ccccc1-n1cc(C(F)F)nn1
REPORTED VALUE: 5 (5=81-100%)

SMI: Fc1cc(Cl)cnc1Oc1cccc(Cl)c1-c1cc(C(F)F)no1
REPORTED VALUE: 5 (5=81-100%)

SMI: Fc1cc(Cl)cnc1Oc1ccccc1-c1cc(C(F)F)on1
REPORTED VALUE: 4 (4=61-80%)

Requested read-out: Pre-emergence Test ECHCG percentage damage (five point scale). Entry: "Cc1noc(-c2ccccc2Oc2ncc(Cl)cc2F)n1" 4 (4=61-80%)

Requested read-out: Pre-emergence Test ECHCG percentage damage (five point scale). Entry: "FC(F)c1cc(-c2c(Br)cccc2Oc2ccc(Cl)cn2)on1" 2 (2=21-40%)

Requested read-out: Pre-emergence Test ECHCG percentage damage (five point scale). Entry: "Fc1cccc(Oc2ccc(C(F)F)cn2)c1-c1cc(C(F)F)no1" 2 (2=21-40%)

###

System: Solanum nigrum (SOLNI)
Assay: Post-emergence herbicide test, glasshouse, percentage damage
Type: in vivo
Conditions: 250 g/ha, evaluated after 13 days
Description: Seeds of a variety of test species are sown in standard soil in pots (Lolium perenne (LOLPE), Solanum nigrum (SOLNI), Amaranthus retoflexus (AMARE), Setaria faberi (SETFA), Echinochloa crus-galli (ECHCG), Ipomoea hederacea (IPOHE)). […] After 13 days for pre and post-emergence, the test is evaluated for the percentage damage caused to the plant. […]
Let's look at some compounds and their measured percentage damage caused to the plant, SOLNI.

Requested read-out: percentage damage caused to the plant, SOLNI. Entry: "Fc1cc(Cl)cnc1Oc1cccc(Cl)c1-c1cc(C(F)F)no1" 5 (5=81-100%)

Requested read-out: percentage damage caused to the plant, SOLNI. Entry: "Cc1ccc(C#N)nc1Oc1cccc(F)c1-c1cc(C(F)F)no1" 4 (4=61-80%)

Requested read-out: percentage damage caused to the plant, SOLNI. Entry: "Fc1cnc(Oc2ccccc2-n2cc(C(F)(F)F)cn2)c(F)c1" 3 (3=41-60%)

Requested read-out: percentage damage caused to the plant, SOLNI. Entry: "Fc1cccc(Oc2ccc(C(F)F)cn2)c1-c1cc(C(F)F)no1" 5 (5=81-100%)

Requested read-out: percentage damage caused to the plant, SOLNI. Entry: "Fc1cc(Cl)cnc1Oc1ccccc1-n1cc(Br)cn1" 5 (5=81-100%)

###

system: Lolium perenne (LOLPE); experiment: Pre-emergence herbicide test, glasshouse, percentage damage; format: in vivo; details: rate 1000 g/ha, evaluated after 13 days
READOUT NAME: Pre-emergence Test LOLPE percentage damage (five point scale)

Some solved entries appear below for comparison.
SMI: Fc1cc(Cl)cnc1Oc1ccccc1-n1ccnc1
ASSAYED TARGET: Lolium perenne (LOLPE)
REPORTED VALUE: 1 (1=0-20%)

SMI: N#Cc1cccnc1Oc1cccc(F)c1-c1cc(C(F)F)no1
ASSAYED TARGET: Lolium perenne (LOLPE)
REPORTED VALUE: 1 (1=0-20%)

SMI: Cc1cccc(Oc2ncc(Cl)cc2F)c1-n1cc(C(F)(F)F)cn1
ASSAYED TARGET: Lolium perenne (LOLPE)
REPORTED VALUE: 5 (5=81-100%)

Requested read-out: Pre-emergence Test LOLPE percentage damage (five point scale). Entry: "O=[N+]([O-])c1cc(Cl)cnc1Oc1cccc(F)c1-c1cc(C(F)F)no1" 1 (1=0-20%)

Requested read-out: Pre-emergence Test LOLPE percentage damage (five point scale). Entry: "Fc1cc(Cl)cnc1Oc1ccccc1-n1cncn1" 1 (1=0-20%)

Requested read-out: Pre-emergence Test LOLPE percentage damage (five point scale). Entry: "N#Cc1cccc(Oc2ncc(F)cc2F)c1-n1cc(C(F)(F)F)cn1" 5 (5=81-100%)

Requested read-out: Pre-emergence Test LOLPE percentage damage (five point scale). Entry: "N#Cc1cccc(Oc2ncc(Cl)cc2F)c1-n1cc(C(F)(F)F)cn1" 4 (4=61-80%)

Requested read-out: Pre-emergence Test LOLPE percentage damage (five point scale). Entry: "N#Cc1ccc(Oc2cccc(Br)c2-c2cc(C(F)F)no2)nc1" 5 (5=81-100%)

###

test system: Ipomoea hederacea (IPOHE); assay: Pre-emergence herbicide test, glasshouse, percentage damage; assay type: in vivo; conditions: rate 500 g/ha, evaluated after 13 days
Let's look at some molecules and their measured Pre-emergence Test IPOHE percentage damage (five point scale).

SMI: O=[N+]([O-])c1ccc(Oc2cccc(F)c2-c2cc(C(F)F)no2)nc1
REPORTED VALUE: 2 (2=21-40%)
//
SMI: Fc1cc(Cl)cnc1Oc1cccc(F)c1-c1cc(C(F)F)no1
REPORTED VALUE: 5 (5=81-100%)
//
SMI: Fc1cccc(Oc2ccc(C(F)(F)F)cn2)c1-c1cc(C(F)F)no1
REPORTED VALUE: 2 (2=21-40%)

Now look at this entry.
Requested read-out: Pre-emergence Test IPOHE percentage damage (five point scale). Entry: "Fc1cccc(Oc2ncc(Cl)cc2Cl)c1-c1cc(C(F)F)no1" 1 (1=0-20%)

###

system: Setaria faberi (SETFA); test: Post-emergence herbicide test, glasshouse, percentage damage; format: in vivo; conditions: 500 g/ha, evaluated after 13 days
Let's look at some molecules and their measured percentage damage caused to the plant, SETFA.

SMI: Fc1cccc(Oc2ccc(Cl)cn2)c1-c1cc(C(F)F)no1
ASSAYED TARGET: Setaria faberi (SETFA)
REPORTED VALUE: 5 (5=81-100%)
//
SMI: Fc1cc(Cl)cnc1Oc1cccc(F)c1-c1cc(C(F)F)no1
ASSAYED TARGET: Setaria faberi (SETFA)
REPORTED VALUE: 5 (5=81-100%)
//
SMI: O=[N+]([O-])c1ccc(Oc2cccc(F)c2-c2cc(C(F)F)no2)nc1
ASSAYED TARGET: Setaria faberi (SETFA)
REPORTED VALUE: 5 (5=81-100%)
//
SMI: Fc1cccc(Oc2cc(C(F)(F)F)ccn2)c1-c1cc(C(F)F)no1
ASSAYED TARGET: Setaria faberi (SETFA)
REPORTED VALUE: 4 (4=61-80%)

API: value(readout=percentage damage caused to the plant, SETFA, system=Setaria faberi (SETFA)) for record "Fc1cccc(Oc2ccc(C(F)(F)F)cn2)c1-c1cc(C(F)F)no1" 5 (5=81-100%)

###

Let's look at some compounds and their measured Pre-emergence Test LOLPE percentage damage (five point scale).
tested on: Lolium perenne (LOLPE); experiment: Pre-emergence herbicide test, glasshouse, percentage damage; format: in vivo; conditions: rate 1000 g/ha, evaluated after 13 days

Requested read-out: Pre-emergence Test LOLPE percentage damage (five point scale). Entry: N#Cc1cccnc1Oc1cccc(Cl)c1-c1cc(C(F)F)no1 [Compound A120] 2 (2=21-40%)

Requested read-out: Pre-emergence Test LOLPE percentage damage (five point scale). Entry: N#Cc1cc(C(F)(F)F)cnc1Oc1cccc(Cl)c1-c1cc(C(F)F)no1 [Compound A118] 5 (5=81-100%)

Requested read-out: Pre-emergence Test LOLPE percentage damage (five point scale). Entry: N#Cc1ccc(Oc2cccc(Cl)c2-c2cc(C(F)F)no2)nc1 [Compound A115] 5 (5=81-100%)

Requested read-out: Pre-emergence Test LOLPE percentage damage (five point scale). Entry: Fc1cc(Br)cnc1Oc1cccc(Br)c1-c1cc(C(F)F)no1 [Compound A103] 5 (5=81-100%)

Requested read-out: Pre-emergence Test LOLPE percentage damage (five point scale). Entry: Fc1cc(Cl)cnc1Oc1cccc(F)c1-c1cc(C(F)F)on1 [Compound A30] 5 (5=81-100%)

Requested read-out: Pre-emergence Test LOLPE percentage damage (five point scale). Entry: Fc1cc(Cl)cnc1Oc1ccccc1-n1cc(C(F)(F)F)nn1 [Compound A82] 5 (5=81-100%)

Requested read-out: Pre-emergence Test LOLPE percentage damage (five point scale). Entry: Cc1cccc(-c2cc(C(F)F)no2)c1Oc1ncc(Cl)cc1F [Compound A94] 2 (2=21-40%)

Requested read-out: Pre-emergence Test LOLPE percentage damage (five point scale). Entry: Fc1cc(C(F)(F)F)cnc1Oc1cccc(Cl)c1-c1cc(C(F)F)no1 [Compound A117] 4 (4=61-80%)

Requested read-out: Pre-emergence Test LOLPE percentage damage (five point scale). Entry: N#Cc1cccc(Oc2ccc(Cl)cn2)c1-n1cc(C(F)(F)F)cn1 [Compound A32] 4 (4=61-80%)

Requested read-out: Pre-emergence Test LOLPE percentage damage (five point scale). Entry: N#Cc1cc(F)cnc1Oc1cccc(Cl)c1-c1cc(C(F)F)no1 [Compound A85] 5 (5=81-100%)

Requested read-out: Pre-emergence Test LOLPE percentage damage (five point scale). Entry: Fc1cc(Cl)cnc1Oc1cccc(Br)c1-c1cc(C(F)F)no1 [Compound A44] 5 (5=81-100%)

Requested read-out: Pre-emergence Test LOLPE percentage damage (five point scale). Entry: FC(F)c1cc(-c2c(Br)cccc2Oc2ccc(C(F)(F)F)cn2)on1 [Compound A90] 5 (5=81-100%)

Requested read-out: Pre-emergence Test LOLPE percentage damage (five point scale). Entry: Fc1cc(Cl)cnc1Oc1ccccc1-c1csc(Cl)c1 [Compound A69] 1 (1=0-20%)

Requested read-out: Pre-emergence Test LOLPE percentage damage (five point scale). Entry: Fc1cc(Cl)cnc1Oc1cccc(F)c1-c1cc(C(F)(F)F)no1 [Compound A31] 5 (5=81-100%)

Requested read-out: Pre-emergence Test LOLPE percentage damage (five point scale). Entry: FC(F)c1cc(-c2c(Cl)cccc2Oc2cc(C(F)(F)F)ccn2)on1 [Compound A112] 3 (3=41-60%)

Requested read-out: Pre-emergence Test LOLPE percentage damage (five point scale). Entry: Fc1cc(Cl)cnc1Oc1c(F)cccc1-c1cc(C(F)F)no1 [Compound A93] 3 (3=41-60%)

Requested read-out: Pre-emergence Test LOLPE percentage damage (five point scale). Entry: N#Cc1cc(F)cnc1Oc1cccc(Br)c1-c1cc(C(F)F)no1 [Compound A84] 5 (5=81-100%)

Requested read-out: Pre-emergence Test LOLPE percentage damage (five point scale). Entry: Fc1cccc(Oc2cc(Cl)ccn2)c1-c1cc(C(F)F)no1 [Compound A60] 1 (1=0-20%)

Requested read-out: Pre-emergence Test LOLPE percentage damage (five point scale). Entry: Fc1cccc(Oc2cc(C(F)(F)F)c(C(F)(F)F)cn2)c1-c1cc(C(F)F)no1 [Compound A78] 1 (1=0-20%)

Requested read-out: Pre-emergence Test LOLPE percentage damage (five point scale). Entry: Fc1ccc(Oc2cccc(F)c2-c2cc(C(F)F)no2)nc1F [Compound A50] 1 (1=0-20%)

Requested read-out: Pre-emergence Test LOLPE percentage damage (five point scale). Entry: Fc1cc(C(F)(F)F)cnc1Oc1cccc(Br)c1-c1cc(C(F)F)no1 [Compound A104] 4 (4=61-80%)

Requested read-out: Pre-emergence Test LOLPE percentage damage (five point scale). Entry: N#Cc1cnn(-c2ccccc2Oc2ncc(Cl)cc2F)c1 [Compound A26] 5 (5=81-100%)
